system.under.test: UniProt P04798
test.summary: Mechanism-based
Format: biochemical
condition.description: human, human P450 1A1 supersomes, pH 7.6, probe 7-ethoxyresorufin (EROD)
result.type: KI (inactivation) at 6 min
Answer with the value and then the unit.

Problem: Give KI (inactivation) at 6 min for Cc1cc(Cl)c2c(c1N)C(=O)c1ccccc1C2=O
Result: 5.38 µM

----------
Here's a batch of molecules along with measured IC50 for human P450 1A1 (Homo sapiens).

>  <molecule>
Nc1ccc(O)c2c1C(=O)c1ccccc1C2=O [Compound 2, 1-amino-4-hydroxyanthracene-9,10-dione]

>  <IC50>
2090 nM

$$$$

Switching to the query record.
Problem: Report IC50, nothing else, for this molecule: CC(C)(C)C1=CC(=O)c2c(ccc(C(C)(C)C)c2O)C1=O
Result: > 50000 nM
